Target: T1, His-tagged mouse CD38 (ACRO Biosystems #CD8-M5223) (mouse, UniProt P56528 45-304)
T1 construct: bought recombinant protein with His tag; also called Murine
T1 sequence (looked up): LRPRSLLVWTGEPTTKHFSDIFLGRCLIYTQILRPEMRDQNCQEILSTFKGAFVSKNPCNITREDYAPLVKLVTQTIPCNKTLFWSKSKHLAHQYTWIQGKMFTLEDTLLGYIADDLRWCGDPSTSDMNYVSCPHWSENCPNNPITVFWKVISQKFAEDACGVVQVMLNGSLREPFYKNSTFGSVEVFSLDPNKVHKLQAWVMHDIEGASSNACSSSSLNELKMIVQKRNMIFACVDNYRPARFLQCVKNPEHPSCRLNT
Experiment: SPR, captured scFv-Fc, His-CD38 analyte;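 also: SPR on a Carterra LSA, scFv-Fc captured by anti-human Fc on HC30M chip, His-tagged CD38 (human, mouse, cynomolgus) flowed as analyte in eight 1:2 steps from 400 nM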
MEASURED_ENDPOINT: pKd
Answers are plain numbers, as −log10 of the molar value.

Some binders with recorded pKd:
BINDER | REPORTED_RESULT
40566p1.D2 (scFv, V domains shown, tested as scFv-Fc supernatant) VH: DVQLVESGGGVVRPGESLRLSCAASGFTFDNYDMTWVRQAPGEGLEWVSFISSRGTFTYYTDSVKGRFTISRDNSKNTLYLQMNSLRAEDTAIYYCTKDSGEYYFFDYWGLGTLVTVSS VL: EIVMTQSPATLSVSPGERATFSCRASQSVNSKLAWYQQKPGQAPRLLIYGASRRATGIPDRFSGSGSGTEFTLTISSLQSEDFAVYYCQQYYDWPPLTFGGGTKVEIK | 8.76
40617p1.2.A1 (scFv, V domains shown, tested as scFv-Fc supernatant) VH: EVQLLESGGGLVQPGGSLRLSCAASGFTFSSYWMTWVRQAPGKGLEWVSAISSYGGQYTYYADSVKGRFTISRDNSKDTLYLHMDSLRAEDTAVYYCAKDWDDGMDVWGQGTTVTVSS VL: EIVMTQSPAVLSVSPGERATLSCRASQSVNIKLAWYQQKPGQAPRLLIYGASTRAAGIPDRFSGSGSGTDFTLTISSLQSDDFAVYYCQQYYDLPPYSFGGGTKVEIK | 6.97
40566p1.F1 (scFv, V domains shown, tested as scFv-Fc supernatant; also called 40566p1.Fl) VH: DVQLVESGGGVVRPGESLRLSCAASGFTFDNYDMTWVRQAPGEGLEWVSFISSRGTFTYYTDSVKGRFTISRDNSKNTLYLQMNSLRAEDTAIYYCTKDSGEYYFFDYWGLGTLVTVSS VL: ETVMTQSPATLSVSPGERATFSCRASQSVNGKLAWYQQKPGQAPRLLIYDASRRATGIPDRFSGSGSGTEFTLTISSLQSEDFAVYYCQQYYDWPPLTFGGGTKVEIK | 9.43

Now let's try a different one.
Value of measured pKd for the entry 40566p1.F8 (scFv, V domains shown, tested as scFv-Fc supernatant) VH: DVQLVESGGGVVRPGESLRLSCAASGFTFDNYDMTWVRQAPGEGLEWVSFISSRGTFAYYTDSVKGRFTISRDNSKNTLYLQMNSLRAEDTAIYYCTKDSGEYYFFDYWGLGTLVTVSS VL: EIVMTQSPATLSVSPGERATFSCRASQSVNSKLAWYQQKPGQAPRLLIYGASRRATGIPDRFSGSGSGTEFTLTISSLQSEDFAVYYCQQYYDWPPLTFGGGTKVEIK : 8.12
